- Test System: T1, mouse GPRC5D (mouse, UniProt Q9JIL6 1-344)
- T1 construct: whole, on cells; HEK293T-mGPRC5D cells; also called mGPRC5D; murine GPRC5D
- T1 sequence (looked up): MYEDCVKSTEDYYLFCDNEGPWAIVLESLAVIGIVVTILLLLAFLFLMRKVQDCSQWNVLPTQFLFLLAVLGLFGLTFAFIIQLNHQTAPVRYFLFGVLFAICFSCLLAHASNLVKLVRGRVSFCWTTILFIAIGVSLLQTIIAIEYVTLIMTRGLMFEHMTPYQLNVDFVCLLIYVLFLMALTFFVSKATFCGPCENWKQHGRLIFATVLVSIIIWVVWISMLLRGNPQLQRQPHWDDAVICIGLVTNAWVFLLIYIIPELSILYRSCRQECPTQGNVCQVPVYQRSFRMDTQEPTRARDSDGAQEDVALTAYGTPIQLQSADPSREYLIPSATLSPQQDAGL
- Method Summary: FACS, HEK293T-mGPRC5D cells
Readout Label: pEC50
A value of pEC50 is the negative decimal logarithm of a concentration given in moles per litre.

>>> result_number("ch26E2H6 (antibody, V domains shown) VH: EVQLVESGGDLVKPGGSLKLSCAASGFTFSSYGMSWVRQTPDKRLEWVATISSGGSYTYYPDSVKGRFTISRDNAKNTLYLQMSSLKSEDTAMYYCARHATDYWGQGTTLTVSS VL: QIVLTQSPAIMSASPGEKVTMTCSASSSVSYMHWYQQKSGTSPKRWIYDTSKLASGVPARFSGSGSGTSYSLTISSMEAEDAATYYCQQWSSNPLTFGAGTKLELK")
6.73

Consider now this further binder.
What measured pEC50 goes with ch98A3A8 (antibody, V domains shown) VH: EVQLQQSGPELVKPGASVKMSCKASGYTFTYYVTHWVRQKPGQGLEWIGYINPYNDGTMFNEKFKGKATLTSDKSSSTAYMEFSSLTSEDSAVFYCARGGVRRYFDVWGAGTTVTVSS VL: DIQMTQSPSSLSASLGERVSLTCRASQDIGSNLNWLQQKPDGTIKRLIYATSSLDSGVPKRFSGSRSGSDYSLTINSLESEDFVDYYCLQYASFPYTFGGGTKLEIK ?
7.16
